# Test details: Inhibition of HCV NS5B polymerase
# Design: species or system Hepacivirus hominis
Give pIC50 for every item shown.
Numbers only, as −log10 of the molar value.

Previously resolved entries follow.
O=C(O)/C(=C/c1ccc(Oc2ccccc2Br)cc1)NC(=O)c1ccccc1; 7.00
O=C(O)/C(=C/c1ccc(Oc2c(F)cccc2Br)cc1)NC(=O)c1ccccc1; 7.52

Report pIC50 for `O=C(O)/C(=C/c1ccc(Oc2ccccc2)cc1)NC(=O)c1ccccc1` please. 4.77

====

# Test details: Cytotoxicity against human HuH7 cells after 5 days by ATPlite luminescence assay
# Type: cell-based, Huh-7
Mark true only when CC50 at 120 h stays strictly below 20 µM. Values equal to the cut-off are false.

Recorded results for 5 molecules are shown here.
CC(C)C(=O)N1c2cccc(O)c2NC2=C(C(=O)CC(C)(C)C2)C1c1ccc(OCc2ccccc2)cc1Cl (stereo unspecified); true
CC(C)C(=O)N1c2cccc(O)c2NC2=C(C(=O)CC(C)(C)C2)C1c1ccc(OCc2ccccc2)cc1Br (stereo unspecified); true
CC1(C)CC(=O)C2=C(C1)Nc1c(O)cccc1N(C(=O)c1ccncn1)C2c1ccc(OCc2ccccc2)cc1F (stereo unspecified); false
CC1(C)CC(=O)C2=C(C1)Nc1c(O)cccc1N(C(=O)c1cscn1)C2c1ccc(OCc2ccccc2)cc1F (stereo unspecified); false
Cc1cc(OCc2ccccc2)ccc1C1C2=C(CC(C)(C)CC2=O)Nc2c(O)cccc2N1C(=O)C(C)C (stereo unspecified); true

CC50 at 120 h under 20 µM? Item: CC1(C)CC(=O)C2=C(C1)Nc1c(O)cccc1N(C(=O)c1ccco1)C2c1ccc(OCc2ccccc2)cc1F (stereo unspecified) true

CC50 at 120 h under 20 µM? Item: `Cc1cccc(C(=O)N2c3cccc(O)c3NC3=C(C(=O)CC(C)(C)C3)[C@H]2c2ccc(OCc3ccccc3)cc2F)n1` true

CC50 at 120 h under 20 µM? Item: Cc1nc(C(=O)N2c3cccc(O)c3NC3=C(C(=O)CC(C)(C)C3)C2c2ccc(OCc3ccccc3)cc2F)c(C)o1 (stereo unspecified) false

====

Give CC50 at 120 h for every item shown.
# Test details: Cytotoxicity against human HuH7 cells after 5 days by ATPlite luminescence assay
# Assay type: cell-based, Huh-7
Numbers only, in µM.

Previously resolved entries follow.
CC1(C)CC(=O)C2=C(C1)Nc1c(O)cccc1N(C(=O)c1cccnc1)C2c1ccc(OCc2ccccc2)cc1F (stereo not drawn); 20
Cc1cc(C(=O)N2c3cccc(O)c3NC3=C(C(=O)CC(C)(C)C3)C2c2ccc(OCc3ccccc3)cc2F)nn1C (stereo not drawn); 25
CC(=O)N1c2cccc(O)c2NC2=C(C(=O)CC(C)(C)C2)C1c1ccc(OCc2ccccc2)cc1Cl (stereo not drawn); 15
Cc1nc(C(=O)N2c3cccc(O)c3NC3=C(C(=O)CC(C)(C)C3)[C@H]2c2ccc(OCc3ccccc3)cc2F)c(C)o1; 13

Provide reported CC50 at 120 h for each item, in the same order as listed.
1. Cc1nc(C(=O)N2c3cccc(O)c3NC3=C(C(=O)CC(C)(C)C3)[C@@H]2c2ccc(OCc3ccccc3)cc2F)c(C)o1
2. CC1(C)CC(=O)C2=C(C1)Nc1c(O)cccc1N(C(=O)c1nccs1)C2c1ccc(OCc2ccccc2)cc1F (stereo not drawn)
3. CC1(C)CC(=O)C2=C(C1)Nc1c(O)cccc1N(C(=O)c1cccc(Cl)n1)C2c1ccc(OCc2ccccc2)cc1F (stereo not drawn)
4. Cc1cccc(C(=O)N2c3cccc(O)c3NC3=C(C(=O)CC(C)(C)C3)[C@@H]2c2ccc(OCc3ccccc3)cc2F)n1
5. Cc1cccc(C(=O)N2c3cccc(O)c3NC3=C(C(=O)CC(C)(C)C3)C2c2ccc(OCc3ccccc3)cc2F)n1 (stereo not drawn)
6. Cc1nc(C(=O)N2c3cccc(O)c3NC3=C(C(=O)CC(C)(C)C3)C2c2ccc(OCc3ccccc3)cc2F)co1 (stereo not drawn)

28
19
13
21
18
29

====

# Test details: Cytotoxicity against human HuH7 cells after 5 days by ATPlite luminescence assay
# Type: cell-based, Huh-7
Measured quantity: CC50 at 120 h

Previously resolved entries follow.
CC1(C)CC(=O)C2=C(C1)Nc1c(O)cccc1N(C(=O)c1ncn[nH]1)C2c1ccc(OCc2ccccc2)cc1F (stereo not drawn); > 32 µM
CC1(C)CC(=O)C2=C(C1)Nc1c(O)cccc1N(C(=O)c1cccc(F)n1)C2c1ccc(OCc2ccccc2)cc1F (stereo not drawn); > 32 µM

Moving on to the next molecule.
Report CC50 at 120 h for Cc1nc(C(=O)N2c3cccc(O)c3NC3=C(C(=O)CC(C)(C)C3)C2c2ccc(OCc3ccccc3)cc2F)cs1 (stereo not drawn) please. > 32 µM
